Ref: paper PMC2574679

tested on: UniProtKB Q07817
Sequence (Q07817 whole entry): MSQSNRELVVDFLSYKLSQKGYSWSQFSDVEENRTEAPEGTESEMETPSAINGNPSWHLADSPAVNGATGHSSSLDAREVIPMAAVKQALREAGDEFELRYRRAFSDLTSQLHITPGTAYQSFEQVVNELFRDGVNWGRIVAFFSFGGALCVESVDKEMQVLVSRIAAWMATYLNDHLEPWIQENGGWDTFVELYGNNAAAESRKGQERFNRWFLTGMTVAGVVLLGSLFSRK
metric: IC50

INSERT INTO results (smiles_input, endpoint_value) VALUES
  ('CC1(C)CCN(c2ccc(C(=O)NS(=O)(=O)c3ccc(NCCSc4ccccc4)c([N+](=O)[O-])c3)cc2)CC1', '78.8 nM');
